Known Kd of a selection of binders
Target: T1, human Factor XIIa-beta (human, UniProt P00748 354-615, limits assumed)
T1 construct: Bought from Enzyme Research Laboratories; also called FXIIa beta; FXIIa-beta
T1 sequence: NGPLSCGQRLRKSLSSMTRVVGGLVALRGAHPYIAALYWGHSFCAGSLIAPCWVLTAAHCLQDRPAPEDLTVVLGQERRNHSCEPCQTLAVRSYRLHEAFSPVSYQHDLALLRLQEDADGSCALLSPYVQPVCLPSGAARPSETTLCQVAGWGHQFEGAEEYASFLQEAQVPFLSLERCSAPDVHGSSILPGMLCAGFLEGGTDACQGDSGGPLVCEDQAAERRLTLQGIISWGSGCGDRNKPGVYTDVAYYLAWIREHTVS
Test: SPR (Biacore A100), unpurified IgG4 supernatant captured on anti-human IgG, single FXIIa beta concentration (100 nM), 37 C, 1:1 fit; estimated
The figure you give is taken to be in nM; do not add the unit.

query: Any idea what Kd was measured for VR63 (antibody, V domains shown, Libraries were built on germline stop templates, so frameworks may differ) VH: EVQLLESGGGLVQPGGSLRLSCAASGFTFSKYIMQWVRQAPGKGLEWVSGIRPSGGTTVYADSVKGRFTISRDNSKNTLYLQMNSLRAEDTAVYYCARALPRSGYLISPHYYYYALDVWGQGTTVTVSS VL: QSELTQPPSASGTPGQRVTISCSGSSSNIGRNYVYWYQQVPGTAPKLLIYSNNQRPSGVPDRFSGSKSGTSASLVISGLRSEDEADYYCAAWDNQVRLGFGGGTKLTVLG ?
result: 8.3

query: Another binder to look at: VR109 (antibody, V domains shown, Libraries were built on germline stop templates, so frameworks may differ) VH: EVQLLESGGGLVQPGGSLRLSCAASGFTFSKYIMQWVRQAPGKGLEWVSGINPATNTTVYADSVKGRFTISRDNSKNTLYLQMNSLRAEDTAVYYCARALPRSGYLISPHYYYYALDVWGQGTTVTVSS VL: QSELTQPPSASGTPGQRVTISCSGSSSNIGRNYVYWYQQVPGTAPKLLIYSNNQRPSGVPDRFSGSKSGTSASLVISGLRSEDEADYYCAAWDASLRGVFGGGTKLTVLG
result: 5.98
